The reported numbers originate from PubChem BioAssay.

Each item that follows carries a reported viability.
- Assay summary: drug combination growth inhibition, ovarian cancer – cell-based, oncology-focused library, rucaparib conditional, profiling panel (AID 1508598)
- Measurement context: patient-derived ovarian cancer cells, CellTiter-Glo viability, 144 h; at 0.00488 µM; OCI-P5x cells; without rucaparib; stronger effect = lower value
Quick note: give the figure in %, leave out the unit.

Worked examples follow.
# Molecule, viability, %
data = [
    ("CCc1c2c(nc3ccc(OC(=O)N4CCC(N5CCCCC5)CC4)cc13)-c1cc3c(c(=O)n1C2)COC(=O)[C@]3(O)CC", 106),
    ("COc1cc2c(Nc3ccc(Br)cc3F)ncnc2cc1OCC1CCN(C)CC1", 104),
    ("CC[C@@]1(O)C(=O)OCc2c1cc1n(c2=O)Cc2cc3c(CN(C)C)c(O)ccc3nc2-1", 49.2),
    ("COC(=O)Nc1nc2ccc(C(=O)c3cccs3)cc2[nH]1", 58),
    ("O=c1c(O)c(-c2ccc(O)c(O)c2)oc2cc(O)cc(O)c12", 105),
    ("O=NN(CCCl)C(=O)NC1CCCCC1", 109),
    ("COc1cc2c(N3CCN(C(=O)Nc4ccc(OC(C)C)cc4)CC3)ncnc2cc1OCCCN1CCCCC1", 96.8),
    ("CC(c1cc2ccccc2s1)N(O)C(N)=O (configuration not stated)", 63.4),
    ("Cn1nnc2c(C(N)=O)ncn2c1=O", 101),
    ("N#Cc1ccc(C(c2ccc(C#N)cc2)n2cncn2)cc1", 97.8),
]

### Prompt Entry under review: CN(Cc1cnc2nc(N)nc(N)c2n1)c1ccc(C(=O)N[C@@H](CCC(=O)O)C(=O)O)cc1 . Reported viability?
### Response 111

### Prompt Next: NC(=O)NO
### Response 109

---

- Assay summary: EMT-state selective cytotoxicity in co-culture – imaging, PC-3E GFP, TEM4-18 mCherry, primary screen (AID 1345086);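 further: normalised mesenchymal count divided by normalised epithelial count so high means epithelial killing; cells exposed to compound for 72 h before imaging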
- Measurement context: PC-3E GFP / TEM4-18 mCherry co-culture, imaging cell counts; at 1 µM; actives lie on both sides; counts scaled to control wells, 1 = unselective
Parameter: red/green cell ratio (normalised)
The answer should be written as a number, with no unit following it.

Worked examples follow.
# Compound, red/green cell ratio (normalised)
rows = [
    ("CCCCCCCCCCCCCCCCOP(=O)([O-])OCC[N+](C)(C)C", 0.8),
    ("NC(=O)NC1NC(=O)NC1=O (stereo unspecified)", 1.05),
    ("Nc1nnc(-c2cccc(Cl)c2Cl)c(N)n1", 0.86),
    ("O=C(O)CCNC(=O)c1ccccc1", 0.71),
    ("CC(C)NCC(O)COc1ccc(COCCOC(C)C)cc1 (stereo unspecified)", 0.9),
    ("Cc1cc(O)cc(C)c1Cl", 1.31),
    ("CC(Oc1c(Cl)cccc1Cl)C1=NCCN1 (stereo unspecified)", 1.37),
    ("NC(N)=NCCN1CCCCCCC1", 1.06),
]

### Prompt Entry under review: CCN(CC)C(=O)c1cccc(C)c1 . Reported red/green cell ratio (normalised)?
### Response 1.18

### Prompt Next: Cc1cc(=O)[nH]c(=S)[nH]1
### Response 0.93

### Prompt Next: CCCOc1ccccc1-c1nc2n[nH]nc2c(=O)[nH]1
### Response 0.95

### Prompt Next: O=c1c(O)c(-c2ccc(O)c(O)c2)oc2cc(O)cc(O)c12
### Response 0.91

### Prompt Next: CO[C@]12C[C@@H](COC(=O)c3cncc(Br)c3)CN(C)[C@@H]1Cc1cn(C)c3cccc2c13
### Response 1.03

### Prompt Next: CN1CCC(OC(c2ccccc2)c2ccccc2)CC1
### Response 1.14

---

- System: Aerobactin synthetase IucA (Klebsiella pneumoniae)
- Assay summary: inhibition of K. pneumoniae IucA enzyme – biochemical, Tocris library, absorbance (AID 1345561);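 further: 100% = enzyme without compound and 0% = no enzyme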
- Measurement context: purified IucA enzyme assay, absorbance (OD) read-out; stronger effect = lower value; concentration not given here
Active and inactive are the calls of the source. The rule behind the calls is not given here.
Parameter: remaining activity

Worked examples follow.
# Compound, Tested on, Parameter, Value
measured = [
    ("CCC1=C(C)CN(C(=O)NCCc2ccc(S(=O)(=O)NC(=O)NC3CCC(C)CC3)cc2)C1=O (stereo not given)", "Aerobactin synthetase IucA (Klebsiella pneumoniae)", "remaining activity", "90.7% (inactive)"),
    ("CCOC(=O)C1=C[C@]2(CC)CCCN3CCc4c(n1c1ccccc41)[C@@H]32", "Aerobactin synthetase IucA (Klebsiella pneumoniae)", "remaining activity", "107% (inactive)"),
    ("CN1CCC(=C2c3ccccc3CC(=O)c3sccc32)CC1", "Aerobactin synthetase IucA (Klebsiella pneumoniae)", "remaining activity", "118% (inactive)"),
    ("CN1[C@@H]2CC[C@H]1CC(OC(=O)c1c[nH]c3ccccc13)C2 (stereo not given in full)", "Aerobactin synthetase IucA (Klebsiella pneumoniae)", "remaining activity", "107% (inactive)"),
]

Note: attention shifts to another entry.
### Prompt Entry under review: NC(N)=N/N=C/c1c(Cl)cccc1Cl . Reported remaining activity?
### Response 99.1% (inactive)

---

- Assay summary: UWB1.289_BRCA1 ovarian cancer growth, cell-based, BGB or cisplatin combinations (AID 1671459)
- Measurement context: UWB1.289 BRCA1 ovarian carcinoma, drug combinations, cisplatin combination, concentration series, at 5 µM, stronger effect = higher value
Parameter: inhibition (%)
Quick note: give the figure in %, leave out the unit.

Worked examples follow.
# Compound, Units label, inhibition
records = [
    ("Nc1nc2c(ncn2COC(CO)CO)c(=O)[nH]1", "%", 66),
    ("Nc1[nH]c(=O)ncc1F", "%", -7.2),
    ("NC(=O)NO", "%", 15.7),
]

### Prompt Entry under review: CC(N)C12CC3CC(CC(C3)C1)C2 (configuration not stated) . Reported inhibition?
### Response 2.74

### Prompt Next: O=NN(CCCl)C(=O)NCCCl
### Response 19.3

### Prompt Next: CN(C)c1ccc(C(=C2C=CC(=[N+](C)C)C=C2)c2ccc(N(C)C)cc2)cc1
### Response 110

### Prompt Next: CCN1CCN(c2cc3c(cc2F)c(=O)c(C(=O)O)cn3C2CC2)CC1
### Response -6.59

### Prompt Next: O=c1c(O)c(-c2ccc(O)c(O)c2)oc2cc(O)cc(O)c12
### Response 11.4

### Prompt Next: Cc1nc2ccc(CN(C)c3ccc(C(=O)N[C@@H](CCC(=O)O)C(=O)O)s3)cc2c(=O)[nH]1
### Response 59.8

### Prompt Next: C[C@H]1COc2c(C3(N)CC3)c(F)cc3c(=O)c(C(=O)O)cn1c23
### Response -1.09

### Prompt Next: Cc1ccnc2c1NC(=O)c1cccnc1N2C1CC1
### Response -3.3

### Prompt Next: CCn1cc(C(=O)O)c(=O)c2cc3c(cc21)OCO3
### Response 15.4

---

- Assay summary: Wnt pathway potentiators raising nuclear beta-catenin – imaging, WNT3A-conditioned medium, mouse C2C12, NPC library, primary screen (AID 1117326)
- Measurement context: stimulation, at 2 µM, stronger effect = higher value
Parameter: nuclear beta-catenin stimulation (%)
Quick note: give the figure in %, leave out the unit.

Worked examples follow.
# Compound, Parameter, Value
records = [
    ("Nc1ccc(S(=O)(=O)Nc2ccc(Cl)nn2)cc1", "nuclear beta-catenin stimulation", 4.5),
    ("CCC1=C(C)CN(C(=O)NCCc2ccc(S(=O)(=O)NC(=O)NC3CCC(C)CC3)cc2)C1=O (stereo not given)", "nuclear beta-catenin stimulation", -1.7),
    ("Nc1nc(F)nc2c1ncn2[C@@H]1O[C@H](CO)[C@@H](O)[C@@H]1O", "nuclear beta-catenin stimulation", 2.3),
    ("CC(=O)[C@@]1(O)CC[C@H]2[C@@H]3C[C@H](C)C4=CC(=O)C=C[C@]4(C)[C@@]3(F)[C@@H](O)C[C@@]21C", "nuclear beta-catenin stimulation", 0.2),
    ("CN(C)CCCN1c2ccccc2Sc2ccc(C(F)(F)F)cc21", "nuclear beta-catenin stimulation", 3.5),
]

### Prompt Entry under review: COCc1c(C(C)C)nc(C(C)C)c(/C=C/[C@@H](O)C[C@@H](O)CC(=O)O)c1-c1ccc(F)cc1 . Reported nuclear beta-catenin stimulation?
### Response 44.8

### Prompt Next: C[C@](N)(Cc1ccc(O)c(O)c1)C(=O)O
### Response 1.2

### Prompt Next: CN1CCN(c2c(F)cc3c(=O)c(C(=O)O)cn4c3c2SCC4)CC1
### Response -0.2

### Prompt Next: Nc1ccc(S(=O)(=O)Nc2cnc3ccccc3n2)cc1
### Response 0.7

### Prompt Next: CC(=O)NCCCCCC(=O)O
### Response 0.7
